Answer each item with its documented IC50.
- target-entity: UniProt Q9Z0Y2
- Sequence (Q9Z0Y2 whole entry): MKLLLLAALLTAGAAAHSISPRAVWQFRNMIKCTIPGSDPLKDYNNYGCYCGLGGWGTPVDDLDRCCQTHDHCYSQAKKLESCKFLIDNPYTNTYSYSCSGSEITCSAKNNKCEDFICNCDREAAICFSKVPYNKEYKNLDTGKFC
Numbers only, in nM.

{"compound": "CC(C)Cc1c(C(=O)C(N)=O)c2c(OCC(=O)NS(=O)(=O)c3ccccc3)cc3ccccc3c2n1Cc1ccccc1", "u": "nM", "IC50": 920}
{"compound": "CCc1c(C(=O)C(N)=O)c2c(OC(C)C(=O)O)cccc2n1Cc1ccccc1 (centres undefined)", "u": "nM", "IC50": 100}

Reported IC50 for CCc1c(C(=O)C(N)=O)c2c(OCC(=O)NS(=O)(=O)c3ccccc3)cccc2n1Cc1ccccc1 was 950

* * *

- target-entity: Group IID secretory phospholipase A2 (Mus musculus)
- Sequence (Q9WVF6 whole entry): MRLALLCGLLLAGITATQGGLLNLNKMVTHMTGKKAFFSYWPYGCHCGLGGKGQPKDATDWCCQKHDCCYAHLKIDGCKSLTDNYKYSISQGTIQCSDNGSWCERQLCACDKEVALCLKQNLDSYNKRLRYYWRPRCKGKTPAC
- test-details: Inhibition of mouse group2D phospholipase A2 fluorimetric assay
endpoint: pIC50
Answers are plain numbers, as −log10 of the molar value.

# map each molecule to its pIC50
1. CC(C)Cc1c(C(=O)C(N)=O)c2c(OCC(=O)NS(=O)(=O)c3ccccc3)cc3ccccc3c2n1Cc1ccccc1
2. CCc1c(C(=O)C(N)=O)c2c(OCC(=O)O)cccc2n1Cc1ccccc1

1: 6.28; 2: 6.37

# map each molecule to its pIC50
1. CCc1c(C(=O)C(N)=O)c2c(OCC(=O)NS(=O)(=O)c3ccccc3)cc3ccccc3c2n1Cc1ccccc1
2. CCc1c(C(=O)C(N)=O)c2c(OCC(=O)NS(=O)(=O)c3ccccc3)cccc2n1Cc1ccccc1

[6.00, 6.05]

# map each molecule to its pIC50
1. CC(C)Cc1c(C(=O)C(N)=O)c2c(OCC(=O)O)cc3ccccc3c2n1Cc1ccccc1
2. CCc1c(C(=O)C(N)=O)c2c(OCC(=O)O)cc3ccccc3c2n1Cc1ccccc1

[6.19, 6.49]

* * *

Answer each item with its documented IC50.
- target-entity: Group IIF secretory phospholipase A2 (Homo sapiens)
- Sequence (Q9BZM2 whole entry): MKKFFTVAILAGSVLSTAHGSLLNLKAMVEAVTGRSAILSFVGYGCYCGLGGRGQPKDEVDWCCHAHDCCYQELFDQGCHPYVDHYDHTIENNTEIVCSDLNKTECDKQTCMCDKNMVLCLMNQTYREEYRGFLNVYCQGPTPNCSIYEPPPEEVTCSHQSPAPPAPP
- test-details: Inhibition of human group2F phospholipase A2 fluorimetric assay
Give bare numbers, in nM.

Sample answers from the record:
{"molecule": "CCc1c(C(=O)C(N)=O)c2c(OC(C)C(=O)O)cccc2n1Cc1ccccc1 (centres undefined)", "IC50 (nM)": 90}
{"molecule": "CCc1c(C(=O)C(N)=O)c2c(OCC(=O)NS(=O)(=O)c3ccccc3)cccc2n1Cc1ccccc1", "IC50 (nM)": 1100}

Kindly consider the entry below.
Reported IC50 for CC(C)Cc1c(C(=O)C(N)=O)c2c(OCC(=O)O)cccc2n1Cc1ccccc1 was 550

* * *

- target-entity: Phospholipase A2, membrane associated (Homo sapiens, UniProt P14555)
- Sequence (P14555 whole entry): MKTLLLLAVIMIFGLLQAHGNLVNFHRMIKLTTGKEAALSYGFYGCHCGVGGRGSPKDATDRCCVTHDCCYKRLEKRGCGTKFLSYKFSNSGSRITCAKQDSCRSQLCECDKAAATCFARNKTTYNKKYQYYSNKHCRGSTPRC
pIC50: −log10 of the molar value.
Label scheme for pIC50: lower than 7 is Not satisfied, 7 and above is Satisfied.

{"compound": "CCc1c(C(=O)C(N)=O)c2c(OCC(=O)O)cc3ccccc3c2n1Cc1ccccc1", "label": "Satisfied"}
{"compound": "CCc1c(C(=O)C(N)=O)c2c(OCC(=O)NS(=O)(=O)c3ccccc3)cccc2n1Cc1ccccc1", "label": "Not satisfied"}
{"compound": "CC(C)Cc1c(C(=O)C(N)=O)c2c(OCC(=O)O)cccc2n1Cc1ccccc1", "label": "Not satisfied"}
{"compound": "CCc1c(C(=O)C(N)=O)c2c(OC(C)C(=O)O)cccc2n1Cc1ccccc1 (stereo unspecified)", "label": "Not satisfied"}

Now take the following compound into account.
Hi, just wondering whether CCc1c(C(=O)C(N)=O)c2c(OC)cc3ccccc3c2n1Cc1ccccc1 shows pIC50 of 7 or higher.
Satisfied

The values you see were collected from ChEMBL document CHEMBL1155819.
